subject-of-test: IRAK4 (Homo sapiens (Human))
Sequence (Q9NWZ3 whole entry): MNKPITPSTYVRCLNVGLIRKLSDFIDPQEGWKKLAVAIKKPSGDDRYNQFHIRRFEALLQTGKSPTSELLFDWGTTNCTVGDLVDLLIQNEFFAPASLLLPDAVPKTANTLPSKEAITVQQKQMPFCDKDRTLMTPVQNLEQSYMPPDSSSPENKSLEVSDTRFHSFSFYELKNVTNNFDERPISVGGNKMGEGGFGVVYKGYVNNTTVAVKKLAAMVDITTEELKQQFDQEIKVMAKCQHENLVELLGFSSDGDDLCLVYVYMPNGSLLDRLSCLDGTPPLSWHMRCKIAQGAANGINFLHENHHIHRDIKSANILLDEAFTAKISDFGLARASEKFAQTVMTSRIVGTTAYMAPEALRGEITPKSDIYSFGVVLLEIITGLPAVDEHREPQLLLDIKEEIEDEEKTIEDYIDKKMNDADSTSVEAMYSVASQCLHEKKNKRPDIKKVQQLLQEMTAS
Mark Fulfilled only when IC50 stays strictly below 700 nM. Values equal to the cut-off are Not fulfilled.

For orientation, consider the following solved cases.
Prompt line: Does CC(C)n1nc(NCC2CCNCC2)c2cnn3cc(-c4ccncc4)cc3c21 have IC50 strictly under 700 nM?
Response line: Fulfilled

Prompt line: Does CC(C)n1nc(NCC2CCN(C)CC2)c2cnn3cc(-c4ccncc4)cc3c21 have IC50 strictly under 700 nM?
Response line: Fulfilled

Prompt line: Does COC(=O)N1CCC(CNc2nn(C(C)C)c3c2cnn2cc(-c4ccncc4)cc32)CC1 have IC50 strictly under 700 nM?
Response line: Fulfilled

Prompt line: Does CC(C)n1nc(NC2CCNCC2)c2cnn3cc(-c4ccncc4)cc3c21 have IC50 strictly under 700 nM?
Response line: Not fulfilled

Attention now turns to another entry.
Prompt line: Does COC(=O)N1CCC(CNc2nn(C(C)C)c3c2cnn2cc(-c4cccnc4)cc32)CC1 have IC50 strictly under 700 nM?
Response line: Not fulfilled

Reference source: patent US12304914B2
